measurement target: FmlH (Escherichia coli)
Assay type: binding, Escherichia coli (UPEC, CFT073)
test conditions: IC50, ELISA, FmlH binding to desialylated bovine submaxillary mucin; average of four or more replicates
Label y when IC50 is strictly below 2000 nM; otherwise label n.

Prompt: Take the compound `CNC(=O)c1cccc(-c2ccccc2O[C@@H]2O[C@H](CO)[C@H](O)[C@H](O)[C@H]2NC(C)=O)c1` and say whether its IC50 is less than 2000 nM.
Completion: n

Prompt: Take the compound `CC(=O)N[C@H]1[C@H](Oc2cccc(C)c2-c2cccc(NS(=O)(=O)C3CC3)c2)O[C@H](CO)[C@H](O)[C@@H]1O` and say whether its IC50 is less than 2000 nM.
Completion: y

Prompt: Take the compound `COc1ccc(OS(C)(=O)=O)cc1-c1ccccc1O[C@@H]1O[C@H](CO)[C@H](O)[C@H](O)[C@H]1NC(C)=O` and say whether its IC50 is less than 2000 nM.
Completion: n

Prompt: Take the compound `Cc1cccc(O[C@@H]2O[C@H](CO)[C@H](O)[C@H](O)[C@H]2NS(C)(=O)=O)c1-c1cccc(NS(C)(=O)=O)c1` and say whether its IC50 is less than 2000 nM.
Completion: n

Prompt: Take the compound `CC(=O)N[C@H]1[C@H](Oc2ccccc2-c2cccc(NS(=O)(=O)C(F)(F)F)c2)O[C@H](CO)[C@H](O)[C@@H]1O` and say whether its IC50 is less than 2000 nM.
Completion: y

* * *

measurement target: FmlH (Escherichia coli)
Format: binding, Escherichia coli (UPEC, CFT073)
test conditions: IC50, ELISA, FmlH binding to desialylated bovine submaxillary mucin; average of four or more replicates
Measured pIC50, listed per entry.
Formally, pIC50 is defined as -log10 of the concentration c, with c in mol/L.

Here's what some known entries look like.
In [3]: df
Out[3]:
                                   molecule  experimental_result
0  COC(=O)Nc1cccc(-c2ccccc2O[C@@H]2O[C@H](CO)[C@H](O)[C@H](O)[C@H]2NC(C)=O)c1                 6.20
1  CC(=O)N[C@H]1[C@H](Oc2ccccc2-c2cccc(C(=O)N(C)C)c2)O[C@H](CO)[C@H](O)[C@@H]1O                 5.51
2  CS(=O)(=O)Nc1cccc(-c2ccccc2O[C@@H]2O[C@H](CO)[C@H](O)[C@H](O)[C@H]2O)c1                 5.80
3  CC(=O)N[C@H]1[C@H](Oc2ccccc2-c2cccc(S(C)(=O)=O)c2)O[C@H](CO)[C@H](O)[C@@H]1O                 6.15
4  CC(=O)N[C@H]1[C@H](Oc2cccc(C)c2-c2cccc(NS(C)(=O)=O)c2)O[C@H](CO)[C@H](O)[C@@H]1O                 7.21
5  CC(=O)N[C@H]1[C@H](Oc2cccc(C(=O)OCc3ccccc3)c2-c2cccc(NS(C)(=O)=O)c2)O[C@H](CO)[C@H](O)[C@@H]1O                 7.05
6  CC(=O)N[C@H]1[C@H](Oc2ccccc2-c2cc(C(=O)O)cc([N+](=O)[O-])c2)O[C@H](CO)[C@H](O)[C@@H]1O                 5.66
7  CC(=O)NC1[C@H](Oc2cccc(C(F)(F)F)c2-c2cccc(NS(C)(=O)=O)c2)O[C@H](CO)[C@H](O)[C@@H]1O (stereo in doubt)                 7.47
8  CC(=O)N[C@H]1[C@H](Oc2cccc(C(=O)O)c2-c2cccc(NS(C)(=O)=O)c2)O[C@H](CO)[C@H](O)[C@@H]1O                 7.18
9  CC(=O)N[C@H]1[C@H](Oc2ccccc2-c2cccc(O)c2)O[C@H](CO)[C@H](O)[C@@H]1O                 6.15

Short answer on FmlH (Escherichia coli) for `CC(=O)N[C@H]1[C@H](Oc2ccc3ccccc3c2-c2cccc(NS(C)(=O)=O)c2)O[C@H](CO)[C@H](O)[C@@H]1O` , pIC50: 7.09

Short answer on FmlH (Escherichia coli) for `CC(=O)N[C@H]1[C@H](Oc2cccc(F)c2-c2cccc(NS(C)(=O)=O)c2)O[C@H](CO)[C@H](O)[C@@H]1O` , pIC50: 7.06

* * *

measurement target: FmlH (Escherichia coli)
Format: binding, Escherichia coli (UPEC, CFT073)
test conditions: IC50, ELISA, FmlH binding to desialylated bovine submaxillary mucin; average of four or more replicates
Label Yes when IC50 is strictly below 600 nM; otherwise label No.

Here are 7 compounds together with their reported answers.
>>> print(df.to_string())
                           molecular_string  group
0  COc1ccc(C(=O)O)cc1-c1ccccc1O[C@@H]1O[C@H](CO)[C@H](O)[C@H](O)[C@H]1NC(C)=O     No
1  COc1cccc(-c2ccccc2O[C@@H]2O[C@H](CO)[C@H](O)[C@H](O)[C@H]2NC(C)=O)c1     No
2  CC(=O)N[C@H]1[C@H](Oc2ccccc2-c2cccc(NS(C)(=O)=O)c2)O[C@H](CO)[C@H](O)[C@@H]1O    Yes
3  CC(=O)N[C@H]1[C@H](Oc2cccc(C#N)c2-c2cccc(NS(C)(=O)=O)c2)O[C@H](CO)[C@H](O)[C@@H]1O    Yes
4  CC(=O)N[C@H]1[C@H](Oc2ccccc2-c2cccc(C(=O)O)c2)O[C@H](CO)[C@H](O)[C@@H]1O     No
5  CC(=O)N[C@H]1[C@H](Oc2ccccc2-c2cccc(C(F)(F)F)c2)O[C@H](CO)[C@H](O)[C@@H]1O     No
6  COc1cccc(O[C@@H]2O[C@H](CO)[C@H](O)[C@H](O)[C@H]2NC(C)=O)c1-c1cccc(NS(C)(=O)=O)c1    Yes

Shifting focus to the compound that follows.
Prompt: Take the compound `CC(=O)N[C@H]1[C@H](Oc2ccccc2-c2cccc(F)c2)O[C@H](CO)[C@H](O)[C@@H]1O` and say whether its IC50 is less than 600 nM.
Completion: No

* * *

measurement target: FmlH (Escherichia coli)
Assay type: binding, Escherichia coli (UPEC, CFT073)
test conditions: IC50, ELISA, FmlH binding to desialylated bovine submaxillary mucin; average of four or more replicates
Measured pIC50, listed per entry.
Formally, pIC50 is defined as -log10 of the concentration c, with c in mol/L.

Here's what some known entries look like.
                                   molecule  endpoint_name  experimental_result
0  COc1ccc(O)cc1-c1ccccc1O[C@@H]1O[C@H](CO)[C@H](O)[C@H](O)[C@H]1NC(C)=O [Compound 34]          pIC50                 6.29
1  O=C(O)c1cc(-c2ccccc2O[C@@H]2O[C@H](CO)[C@H](O)[C@H](O)[C@H]2O)cc([N+](=O)[O-])c1 [Compound 30]          pIC50                 6.55
2  CC(=O)NC1[C@H](Oc2ccccc2-c2cccc(NC(=O)C(F)(F)F)c2)O[C@H](CO)[C@H](O)[C@@H]1O (stereo in doubt) [Compound 44]          pIC50                 6.43

The reported value for CC(=O)N[C@H]1[C@H](Oc2ccccc2-c2cccc(CO)c2)O[C@H](CO)[C@H](O)[C@@H]1O [Compound 42] in terms of pIC50 is 6.20

The reported value for CC(=O)NC1[C@H](Oc2cccc(C)c2-c2cccc(NS(=O)(=O)N(C)C)c2)O[C@H](CO)[C@H](O)[C@@H]1O (stereo in doubt) [Compound 87] in terms of pIC50 is 7.11

The reported value for CC(=O)N[C@H]1[C@H](Oc2ccccc2-c2cccc(OS(C)(=O)=O)c2)O[C@H](CO)[C@H](O)[C@@H]1O [Compound 33] in terms of pIC50 is 6.05

* * *

measurement target: FmlH (Escherichia coli, UniProt Q1RBS0)
Assay type: binding, Escherichia coli (UPEC, CFT073)
test conditions: IC50, ELISA, FmlH binding to desialylated bovine submaxillary mucin; average of four or more replicates
pIC50: −log10 of the molar value.
Rule: pIC50 under 6 gives not fulfilled, otherwise fulfilled.

Here are 2 compounds together with their reported answers.
                                   compound          group
0  CC(=O)N[C@H]1[C@H](Oc2ccccc2-c2cccc(C(N)=O)c2)O[C@H](CO)[C@H](O)[C@@H]1O [Compound 48]  not fulfilled
1  CC(=O)Nc1cccc(-c2ccccc2O[C@@H]2O[C@H](CO)[C@H](O)[C@H](O)[C@H]2NC(C)=O)c1 [Compound 43]      fulfilled

Prompt: Is pIC50 at least 6? Consider CC(=O)N[C@H]1[C@H](Oc2cccc([N+](=O)[O-])c2-c2cccc(NS(C)(=O)=O)c2)O[C@H](CO)[C@H](O)[C@@H]1O [Compound 78]
Completion: fulfilled

Prompt: Is pIC50 at least 6? Consider CC(=O)N[C@H]1[C@H](Oc2ccccc2-c2cccc([N+](=O)[O-])c2)O[C@H](CO)[C@H](O)[C@@H]1O [Compound 38]
Completion: not fulfilled
